procedure-summary: Solubility in buffers, water and simulated vaginal fluid at 37° C.
condition: 37 °C, pH 4.2, fassgf or other biorelevant, thermodynamic from solid
property-measured: solubility at 0.5 h

{"compound": "CCOC(=O)[C@H](C)N[P@](=O)(COCCn1cnc2c(OC)nc(N)nc21)OCc1ccccc1.O=C(O)/C=C/C(=O)O (single isomer, unassigned) [Compound III]", "property-measured": "solubility at 0.5 h", "assay-result": "> 2000 µg/mL"}

---

System: HEK293 cells
procedure-summary: In vitro cytotoxicity, XTT, five days
condition: read-out: HEK293 CC50; proliferating HEK293 cells, XTT, five days
property-measured: CC50

{"compound": "CCOC(=O)C(C)NP(=O)(COCCn1cnc2c(OC)nc(N)nc21)OCc1ccccc1 (mixture of isomers) [AB12280]", "study-system": "HEK293 cells", "property-measured": "CC50", "assay-result": "< 160 nM"}

---

procedure-summary: Solubility in buffers, water and simulated vaginal fluid at 37° C.
condition: 37 °C, pH 3, aqueous buffer, thermodynamic from solid
property-measured: solubility at 0.5 h

{"compound": "CCOC(=O)[C@H](C)N[P@](=O)(COCCn1cnc2c(OC)nc(N)nc21)OCc1ccccc1.O=C(O)/C=C/C(=O)O (single isomer, unassigned) [Compound III]", "property-measured": "solubility at 0.5 h", "assay-result": "> 2000 µg/mL"}

---

procedure-summary: Solubility in buffers, water and simulated vaginal fluid at 37° C.
condition: 37 °C, pH 6.8, aqueous buffer, thermodynamic from solid

{"molecule": "CCOC(=O)[C@H](C)N[P@](=O)(COCCn1cnc2c(OC)nc(N)nc21)OCc1ccccc1.O=C(O)/C=C/C(=O)O (single isomer, unassigned)", "solubility at 0.5 h": "> 2000 µg/mL"}

---

procedure-summary: Solubility in buffers, water and simulated vaginal fluid at 37° C.
condition: 37 °C, pH 4.5, aqueous buffer, thermodynamic from solid

{"compound": "CCOC(=O)[C@H](C)N[P@](=O)(COCCn1cnc2c(OC)nc(N)nc21)OCc1ccccc1.O=C(O)/C=C/C(=O)O (single isomer, unassigned) [Compound III]", "solubility at 2 h": "> 2000 µg/mL"}
